- subject_of_test: prostacyclin (PGI2) synthetase (Bos taurus, UniProt Q29626)
- Sequence (Q29626 whole entry): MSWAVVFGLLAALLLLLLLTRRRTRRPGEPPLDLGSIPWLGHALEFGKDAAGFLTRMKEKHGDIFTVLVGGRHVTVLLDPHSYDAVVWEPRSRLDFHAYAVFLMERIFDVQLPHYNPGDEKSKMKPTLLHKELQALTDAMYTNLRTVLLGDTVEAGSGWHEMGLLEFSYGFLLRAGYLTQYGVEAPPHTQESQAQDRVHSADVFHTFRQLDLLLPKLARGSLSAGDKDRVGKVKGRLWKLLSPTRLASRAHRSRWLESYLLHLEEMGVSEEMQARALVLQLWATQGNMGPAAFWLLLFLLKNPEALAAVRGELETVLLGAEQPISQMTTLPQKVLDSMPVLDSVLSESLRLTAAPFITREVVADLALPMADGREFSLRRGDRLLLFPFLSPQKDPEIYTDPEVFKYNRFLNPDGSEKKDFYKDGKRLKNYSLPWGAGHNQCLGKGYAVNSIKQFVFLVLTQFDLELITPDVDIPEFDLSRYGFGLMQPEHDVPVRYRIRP
measurement_label: IC50

Qu. Which measured IC50 value corresponds to `Cc1c(-c2cccnc2)n(CCCCCCCC(=O)O)c2ccccc12` ?
Ans. ~100 µM

All values here come from patent US4460777A.
